- Experimental System: human Nav1.5 (Homo sapiens (Human), UniProt Q14524)
- Sequence (Q14524 whole entry): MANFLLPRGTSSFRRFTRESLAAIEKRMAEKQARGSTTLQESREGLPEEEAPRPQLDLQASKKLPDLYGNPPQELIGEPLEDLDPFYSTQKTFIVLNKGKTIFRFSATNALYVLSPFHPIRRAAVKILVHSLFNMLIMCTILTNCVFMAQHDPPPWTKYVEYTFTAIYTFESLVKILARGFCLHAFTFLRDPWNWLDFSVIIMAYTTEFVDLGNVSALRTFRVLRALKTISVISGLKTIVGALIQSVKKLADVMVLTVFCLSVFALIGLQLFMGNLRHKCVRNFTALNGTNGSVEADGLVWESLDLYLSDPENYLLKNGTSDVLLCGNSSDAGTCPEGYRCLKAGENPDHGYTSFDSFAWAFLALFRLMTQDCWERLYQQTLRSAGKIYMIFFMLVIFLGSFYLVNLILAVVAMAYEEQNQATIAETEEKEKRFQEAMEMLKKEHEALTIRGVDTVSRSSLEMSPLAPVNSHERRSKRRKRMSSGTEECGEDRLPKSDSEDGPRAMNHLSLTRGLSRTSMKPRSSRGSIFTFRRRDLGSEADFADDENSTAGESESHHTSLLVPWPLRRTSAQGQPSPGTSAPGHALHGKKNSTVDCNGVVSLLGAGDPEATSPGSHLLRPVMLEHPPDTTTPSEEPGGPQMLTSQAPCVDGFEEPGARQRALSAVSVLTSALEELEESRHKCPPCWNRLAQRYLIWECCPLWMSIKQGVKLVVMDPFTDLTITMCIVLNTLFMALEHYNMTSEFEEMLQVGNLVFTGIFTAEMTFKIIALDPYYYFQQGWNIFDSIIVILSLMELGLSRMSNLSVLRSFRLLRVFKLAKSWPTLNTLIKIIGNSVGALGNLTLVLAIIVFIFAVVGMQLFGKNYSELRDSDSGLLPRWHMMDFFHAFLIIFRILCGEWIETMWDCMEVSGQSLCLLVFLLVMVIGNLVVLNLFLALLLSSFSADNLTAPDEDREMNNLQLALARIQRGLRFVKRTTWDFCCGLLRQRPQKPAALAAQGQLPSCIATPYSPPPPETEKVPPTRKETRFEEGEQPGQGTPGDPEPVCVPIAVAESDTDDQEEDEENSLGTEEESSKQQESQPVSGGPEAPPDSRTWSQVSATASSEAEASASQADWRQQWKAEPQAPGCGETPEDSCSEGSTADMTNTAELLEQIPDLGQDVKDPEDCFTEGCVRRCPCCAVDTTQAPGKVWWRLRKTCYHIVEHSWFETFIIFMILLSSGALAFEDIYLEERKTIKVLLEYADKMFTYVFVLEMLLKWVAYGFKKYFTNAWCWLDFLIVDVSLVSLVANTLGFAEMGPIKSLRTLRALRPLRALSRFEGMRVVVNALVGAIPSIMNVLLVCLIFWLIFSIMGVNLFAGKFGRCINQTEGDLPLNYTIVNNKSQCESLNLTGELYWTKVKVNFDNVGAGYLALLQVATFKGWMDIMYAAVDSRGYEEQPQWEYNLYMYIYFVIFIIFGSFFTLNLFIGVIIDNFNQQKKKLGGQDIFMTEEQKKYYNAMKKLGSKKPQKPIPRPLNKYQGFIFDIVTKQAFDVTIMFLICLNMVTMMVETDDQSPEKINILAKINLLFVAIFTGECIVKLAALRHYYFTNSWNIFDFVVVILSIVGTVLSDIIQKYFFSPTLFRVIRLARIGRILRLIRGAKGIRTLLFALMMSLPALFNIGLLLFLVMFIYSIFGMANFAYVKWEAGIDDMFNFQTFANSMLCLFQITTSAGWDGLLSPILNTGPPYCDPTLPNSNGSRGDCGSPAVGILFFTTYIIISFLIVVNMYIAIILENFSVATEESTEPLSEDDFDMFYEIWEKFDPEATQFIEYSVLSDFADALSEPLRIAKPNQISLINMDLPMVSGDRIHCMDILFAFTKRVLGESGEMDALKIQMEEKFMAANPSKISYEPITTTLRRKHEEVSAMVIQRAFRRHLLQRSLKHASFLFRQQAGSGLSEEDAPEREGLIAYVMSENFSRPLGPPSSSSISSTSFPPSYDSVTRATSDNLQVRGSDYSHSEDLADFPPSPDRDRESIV
- Protocol: Human Nav1.5 inhibitory activity evaluation (automated patch clamp QPatch16X, HEK293 cells stably expressing human Nav1.5)
- Format: cell-based
- Measurement Conditions: human Nav1.5, automated patch clamp
Assay Metric: IC50

Sample answers from the record:
# get_value(readout='IC50', item= `CC(C)(CC1CC1)N1CCn2nc(C(=O)N[C@H]3COc4ccc(C#N)cc4C3)cc2C1` )
1000 to 3000 nM

# get_value(readout='IC50', item= N#CC1(COCC2CCn3nc(C(=O)N[C@H]4COc5ccc(Cl)cc5C4)cc3O2)CC1 (single isomer, unassigned) [563 (isomer A)] )
1000 to 3000 nM

# get_value(readout='IC50', item= O=C(N[C@H]1COc2ccc(Cl)cc2C1)c1cc2n(n1)CCC(C(F)(F)F)O2 (single isomer, unassigned) [170 (isomer A)] )
1000 to 3000 nM

# get_value(readout='IC50', item= O=C(N[C@H]1COc2ccc(COCC(F)(F)F)cc2C1)c1cc2n(n1)CC(COCC1CC1)O2 (stereo partly shown) [Example 185] )
≥ 3000 nM

# get_value(readout='IC50', item= O=C(N[C@H]1COc2ccc(COCC(F)(F)F)cc2C1)c1cc2n(n1)CC(CCNCC(F)(F)F)O2 (single isomer, unassigned) [232 (isomer B)] )
≥ 3000 nM

Further cases:
# get_value(readout='IC50', item= O=C(N[C@H]1COc2ccc(Cl)cc2C1)c1cc2n(n1)CCC(C(F)(F)F)O2 (stereo partly shown) [Example 169] )
1000 to 3000 nM

# get_value(readout='IC50', item= N#CC1(COCC2CCn3nc(C(=O)N[C@H]4COc5ccc(Cl)cc5C4)cc3O2)CC1 (stereo partly shown) [Example 538] )
≥ 3000 nM

---

- Experimental System: human Nav1.7 (Homo sapiens (Human), UniProt Q15858)
- Sequence (Q15858 whole entry): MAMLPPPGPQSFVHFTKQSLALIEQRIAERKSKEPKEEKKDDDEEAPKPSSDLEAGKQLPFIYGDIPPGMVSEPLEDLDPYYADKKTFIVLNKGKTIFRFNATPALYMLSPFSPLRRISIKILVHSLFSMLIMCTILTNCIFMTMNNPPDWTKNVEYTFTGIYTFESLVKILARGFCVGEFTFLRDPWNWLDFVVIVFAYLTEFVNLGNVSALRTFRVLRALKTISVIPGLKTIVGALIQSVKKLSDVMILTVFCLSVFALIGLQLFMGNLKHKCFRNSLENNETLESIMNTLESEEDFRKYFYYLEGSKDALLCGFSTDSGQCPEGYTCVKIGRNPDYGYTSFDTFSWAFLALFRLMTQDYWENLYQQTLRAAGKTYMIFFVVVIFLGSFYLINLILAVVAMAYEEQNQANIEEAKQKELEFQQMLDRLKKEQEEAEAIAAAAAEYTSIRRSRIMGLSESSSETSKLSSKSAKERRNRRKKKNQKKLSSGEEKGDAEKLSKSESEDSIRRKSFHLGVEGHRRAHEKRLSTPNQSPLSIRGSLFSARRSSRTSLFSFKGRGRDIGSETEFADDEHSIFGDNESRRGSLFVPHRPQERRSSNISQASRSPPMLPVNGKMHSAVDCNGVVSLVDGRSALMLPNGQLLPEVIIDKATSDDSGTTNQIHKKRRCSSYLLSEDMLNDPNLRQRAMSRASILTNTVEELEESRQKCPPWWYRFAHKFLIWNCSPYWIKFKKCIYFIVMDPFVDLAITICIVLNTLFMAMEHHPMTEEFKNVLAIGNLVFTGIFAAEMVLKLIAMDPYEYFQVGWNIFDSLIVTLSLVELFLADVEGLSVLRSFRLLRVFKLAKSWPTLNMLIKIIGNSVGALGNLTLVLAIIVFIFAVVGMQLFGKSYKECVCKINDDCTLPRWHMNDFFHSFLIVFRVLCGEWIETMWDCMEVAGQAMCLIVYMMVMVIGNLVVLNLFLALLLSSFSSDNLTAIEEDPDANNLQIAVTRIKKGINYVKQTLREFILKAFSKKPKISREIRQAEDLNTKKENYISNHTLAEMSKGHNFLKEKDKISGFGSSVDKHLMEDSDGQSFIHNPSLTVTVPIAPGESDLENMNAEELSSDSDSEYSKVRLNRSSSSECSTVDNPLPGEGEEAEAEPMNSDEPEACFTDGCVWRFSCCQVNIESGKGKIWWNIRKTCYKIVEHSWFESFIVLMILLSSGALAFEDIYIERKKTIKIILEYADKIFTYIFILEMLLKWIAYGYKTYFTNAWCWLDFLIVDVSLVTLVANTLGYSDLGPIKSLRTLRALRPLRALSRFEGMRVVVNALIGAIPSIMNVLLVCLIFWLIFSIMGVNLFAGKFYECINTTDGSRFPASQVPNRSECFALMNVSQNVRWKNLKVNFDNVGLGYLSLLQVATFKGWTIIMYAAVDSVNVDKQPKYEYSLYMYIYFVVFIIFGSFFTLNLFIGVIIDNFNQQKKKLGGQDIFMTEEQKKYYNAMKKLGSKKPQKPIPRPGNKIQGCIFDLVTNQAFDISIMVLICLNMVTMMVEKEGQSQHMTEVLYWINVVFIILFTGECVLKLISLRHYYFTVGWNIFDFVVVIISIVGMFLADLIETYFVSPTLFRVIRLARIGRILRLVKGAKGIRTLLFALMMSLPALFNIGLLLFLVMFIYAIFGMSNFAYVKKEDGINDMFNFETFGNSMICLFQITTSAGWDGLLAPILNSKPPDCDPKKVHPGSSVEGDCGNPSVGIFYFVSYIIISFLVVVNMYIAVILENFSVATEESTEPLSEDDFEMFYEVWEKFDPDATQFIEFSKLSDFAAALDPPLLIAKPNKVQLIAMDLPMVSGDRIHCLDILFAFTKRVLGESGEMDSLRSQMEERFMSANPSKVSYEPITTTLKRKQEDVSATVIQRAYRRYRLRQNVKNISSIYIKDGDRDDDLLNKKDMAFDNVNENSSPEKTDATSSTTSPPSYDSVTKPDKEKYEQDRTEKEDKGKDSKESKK
- Sequence (Q07699 19-218 partner): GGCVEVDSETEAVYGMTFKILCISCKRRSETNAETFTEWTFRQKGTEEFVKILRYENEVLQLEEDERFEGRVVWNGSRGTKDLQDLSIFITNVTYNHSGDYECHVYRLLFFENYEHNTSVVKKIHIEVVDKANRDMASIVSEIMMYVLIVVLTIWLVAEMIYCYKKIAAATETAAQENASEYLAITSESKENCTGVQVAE
- Protocol: Human Nav1.7 inhibitory activity evaluation (automated patch clamp QPatch16X, HEK293A cells stably expressing human Nav1.7 and human Navβ1)
- Type: cell-based
- Measurement Conditions: HEK293A cells stably expressing human Nav1.7 and human Navβ1, automated patch clamp QPatch16X
- Experimental: Test Example 1: Human Nav1.7 Inhibitory Activity Evaluation A cell line in which human Nav1.7 and human Navβ1 subunits were stably expressed in HEK293A cells was used. […] The amount of current through human Nav1.7 was recorded using a fully automatic patch clamp device QPatch16X (Sophion Biosciences) at room temperature. […]
pIC50: −log10 of the molar value.
Assay Metric: pIC50

Sample answers from the record:
# get_value(readout='pIC50', item= CCOCc1ccc2c(c1)C[C@@H](NC(=O)c1cc3n(n1)CCC(c1ccccc1F)O3)CO2 (some centres unmarked) )
> 6.00

# get_value(readout='pIC50', item= O=C(N[C@H]1COc2ccccc2C1)c1cn2c(n1)CCC(COc1ccccc1)C2 (some centres unmarked) )
> 6.00

# get_value(readout='pIC50', item= O=C(NC1COc2cccc(C3CC3)c2C1)c1cn2c(n1)CCC(C(F)(F)F)C2 (centres unmarked) )
> 5.00

# get_value(readout='pIC50', item= O=C(N[C@H]1COc2ccccc2C1)c1cn2c(n1)CNC(CCC1CCCC1)C2 (some centres unmarked) )
> 6.00

# get_value(readout='pIC50', item= CCCOCC1CCn2nc(C(=O)N[C@H]3COc4ccc(C#N)cc4C3)cc2O1 (single isomer, unassigned) [101 (isomer A)] )
> 6.00

Further cases:
# get_value(readout='pIC50', item= O=C(N[C@H]1COc2ccc(Cl)cc2C1)c1cc2n(n1)CCC(COc1ccncc1)O2 (some centres unmarked) )
> 5.00

# get_value(readout='pIC50', item= CC(C)CCC1Cn2cc(C(=O)N[C@H]3COc4ccccc4C3)nc2CN1C (some centres unmarked) )
> 5.00

# get_value(readout='pIC50', item= CCC1CCn2nc(C(=O)N[C@H]3COc4ccc(C#N)cc4C3)cc2O1 (single isomer, unassigned) [Example 92 (isomer A)] )
> 6.00

---

Below, each entry is listed alongside its reported IC50.
- Experimental System: human Nav1.7 (Homo sapiens (Human), UniProt Q15858)
- Protocol: Human Nav1.7 inhibitory activity evaluation (automated patch clamp QPatch16X, HEK293A cells stably expressing human Nav1.7 and human Navβ1)
- Type: cell-based
- Measurement Conditions: human Nav1.7, automated patch clamp

API: value(readout=IC50, system=human Nav1.7 (Homo sapiens (Human), UniProt Q15858)) for record N#Cc1ccc2c(c1)C(F)[C@@H](NC(=O)c1cc3n(n1)CCC(C(F)(F)F)CO3)CO2 (stereo partly shown) [Example 649]
< 10000 nM

API: value(readout=IC50, system=human Nav1.7 (Homo sapiens (Human), UniProt Q15858)) for record CC1(C)CCn2nc(C(=O)N[C@H]3COc4ccc(Cl)cc4C3)cc2O1 [Example 177]
< 1000 nM

API: value(readout=IC50, system=human Nav1.7 (Homo sapiens (Human), UniProt Q15858)) for record O=C(N[C@H]1COc2ccccc2C1)c1nn2c(c1-c1ccccc1)CN(CC(F)(F)F)CC2 [Example 275]
< 1000 nM

API: value(readout=IC50, system=human Nav1.7 (Homo sapiens (Human), UniProt Q15858)) for record O=C(N[C@H]1COc2ccc(C(F)(F)F)cc2C1)c1cc2n(n1)CC(CCN1CCC(F)(F)C1)O2 (stereo partly shown) [Example 476]
< 1000 nM

Further cases:
API: value(readout=IC50, system=human Nav1.7 (Homo sapiens (Human), UniProt Q15858)) for record O=C(N[C@H]1COc2ccc(C(F)(F)F)cc2C1F)c1cc2n(n1)CCC(COCC(F)F)O2 (stereo partly shown) [Example 624]
< 1000 nM

API: value(readout=IC50, system=human Nav1.7 (Homo sapiens (Human), UniProt Q15858)) for record O=C(N[C@H]1COc2ccc(COCC(F)(F)F)cc2C1)c1cc2n(n1)CCC(CCOC(F)F)O2 (stereo partly shown) [Example 149]
< 1000 nM

API: value(readout=IC50, system=human Nav1.7 (Homo sapiens (Human), UniProt Q15858)) for record O=C(NCCc1cccc(C(F)(F)F)c1)c1cn2c(n1)CNC(c1cccc(C(F)(F)F)n1)C2 (stereo not shown) [Example 324]
< 10000 nM

API: value(readout=IC50, system=human Nav1.7 (Homo sapiens (Human), UniProt Q15858)) for record CCc1ccc2c(c1)CC(NC(=O)c1cn3c(n1)CCC(C(F)(F)F)C3)CO2 (stereo not shown) [Example 295]
< 1000 nM

API: value(readout=IC50, system=human Nav1.7 (Homo sapiens (Human), UniProt Q15858)) for record O=C(N[C@H]1COc2ccc(C(F)(F)F)cc2C1)c1cc2n(n1)CCC(C#CC1CC1)O2 (stereo partly shown) [Example 402]
< 1000 nM

API: value(readout=IC50, system=human Nav1.7 (Homo sapiens (Human), UniProt Q15858)) for record C[C@@H]1CN(c2cccc(C3CCc4nc(C(=O)N5CCC(c6ccccc6)C5)cn4C3)n2)C[C@H](C)O1 (stereo partly shown) [Example 311]
< 10000 nM

API: value(readout=IC50, system=human Nav1.7 (Homo sapiens (Human), UniProt Q15858)) for record N#Cc1ccc2c(c1)C[C@@H](NC(=O)c1cc3n(n1)CC(CSCC(F)(F)F)O3)CO2 (stereo partly shown) [Example 199]
< 10000 nM

API: value(readout=IC50, system=human Nav1.7 (Homo sapiens (Human), UniProt Q15858)) for record N#CC1(COCC2CCn3nc(C(=O)N[C@H]4COc5ccc(C(F)(F)F)cc5C4)cc3O2)CC1 (stereo partly shown) [Example 553]
< 10000 nM

API: value(readout=IC50, system=human Nav1.7 (Homo sapiens (Human), UniProt Q15858)) for record CC1(C)CCn2nc(C(=O)N[C@H]3COc4ccc(CCOC(F)(F)F)cc4C3)cc2O1 [Example 403]
< 1000 nM

API: value(readout=IC50, system=human Nav1.7 (Homo sapiens (Human), UniProt Q15858)) for record O=C(N[C@H]1COc2ccc(C(F)(F)F)cc2C1O)c1cc2n(n1)CC(CCOCC1CC1)O2 (stereo partly shown) [Example 595]
< 1000 nM

API: value(readout=IC50, system=human Nav1.7 (Homo sapiens (Human), UniProt Q15858)) for record O=C(N[C@H]1COc2ccc(I)cc2C1)c1cc2n(n1)CCC(C(F)F)O2 (stereo partly shown) [Example 566]
< 1000 nM

API: value(readout=IC50, system=human Nav1.7 (Homo sapiens (Human), UniProt Q15858)) for record COc1ncc(-c2ccc3c(c2)C[C@@H](NC(=O)c2cc4n(n2)CC(COCC2CC2)O4)CO3)cn1 (stereo partly shown) [Example 468]
< 1000 nM
